Target: T1, QP273 (cynoSIRPα2-flag-his T-557-14) (cynomolgus)
T1 construct: also called cynomolgus SIRPα (QP273)
T1 chain: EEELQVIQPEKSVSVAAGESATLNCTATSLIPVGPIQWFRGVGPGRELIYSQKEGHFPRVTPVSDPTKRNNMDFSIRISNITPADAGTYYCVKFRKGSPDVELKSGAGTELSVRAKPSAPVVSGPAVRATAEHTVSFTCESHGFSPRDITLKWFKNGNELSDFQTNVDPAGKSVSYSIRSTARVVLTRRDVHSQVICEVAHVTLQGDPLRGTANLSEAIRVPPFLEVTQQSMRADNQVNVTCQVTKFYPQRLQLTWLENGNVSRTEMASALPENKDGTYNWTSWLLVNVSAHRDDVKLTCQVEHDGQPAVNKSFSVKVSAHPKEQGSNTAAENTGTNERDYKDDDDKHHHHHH
Test: SPR, Biacore
Kindly apply the following: YES if Kd is less than 2 nM, NO in every other case.

- QP256279 (antibody, human IgG4, V domains shown, Human IgG4 heavy constant region and kappa CL) VH: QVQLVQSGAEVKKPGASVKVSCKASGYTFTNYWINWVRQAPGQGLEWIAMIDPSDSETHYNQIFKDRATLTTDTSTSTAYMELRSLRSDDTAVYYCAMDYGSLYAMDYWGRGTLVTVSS VL: DIVLTQSPDSLAVSLGERATINCRASQSVRSSGYNWIFWYQQKPGQPPKLLIYLASNRDSGVPDRFSGSGSGTDFTLTISSLQAEDVAVYYCQHSRELPTFGQGTKLEIK: YES
- QP2561770 (antibody, human IgG4, V domains shown, Human IgG4 heavy constant region and kappa CL) VH: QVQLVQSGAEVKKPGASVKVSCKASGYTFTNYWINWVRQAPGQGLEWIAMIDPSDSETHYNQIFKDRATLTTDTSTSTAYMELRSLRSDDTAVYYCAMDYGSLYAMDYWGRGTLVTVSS VL: DIVLTQSPDSLAVSLGERATINCRASQSVRSSGYNWIFWYQQKPGQPPKLLIYLASNRDSGVPDRFSGSGSGTDFTLTISSLQAEDVAVYYCQESRELPTFGQGTKLEIK: YES
- QP2561586 (antibody, human IgG4, V domains shown, Human IgG4 heavy constant region and kappa CL) VH: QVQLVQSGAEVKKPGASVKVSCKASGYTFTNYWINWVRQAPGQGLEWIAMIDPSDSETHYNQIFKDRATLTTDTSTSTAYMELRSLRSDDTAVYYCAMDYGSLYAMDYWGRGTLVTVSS VL: DIVLTQSPDSLAVSLGERATINCRASKSVSSSGYNYIFWYQQKPGQPPKLLIYLASNLDSGVPDRFSGSGSGTDFTLTISSLQAEDVAVYYCQESRELPTFGQGTKLEIK: NO
- QP2561589 (antibody, human IgG4, V domains shown, Human IgG4 heavy constant region and kappa CL) VH: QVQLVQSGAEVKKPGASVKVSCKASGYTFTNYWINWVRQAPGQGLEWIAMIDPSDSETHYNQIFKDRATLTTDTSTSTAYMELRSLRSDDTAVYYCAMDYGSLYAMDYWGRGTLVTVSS VL: DIVLTQSPDSLAVSLGERATINCRASKSVSSSGYNYIFWYQQKPGQPPKLLIYLASNLDSGVPDRFSGSGSGTDFTLTISSLQAEDVAVYYCQESWELPTFGQGTKLEIK: NO
- QP256253 (antibody, human IgG4, V domains shown, also called humanized antibody QP256253; QP163164 humanized clone) VH: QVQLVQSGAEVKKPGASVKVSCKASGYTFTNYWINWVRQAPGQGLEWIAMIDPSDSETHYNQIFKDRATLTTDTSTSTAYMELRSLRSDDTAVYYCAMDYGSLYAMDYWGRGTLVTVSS VL: DIVLTQSPDSLAVSLGERATINCRASKSVSSSGYNYIFWYQQKPGQPPKLLIYLASNLDSGVPDRFSGSGSGTDFTLTISSLQAEDVAVYYCQHSRELPTFGQGTKLEIK: NO
